The measured values listed here are drawn from patent US20260242478A1.

As shown below, each of these binders has a reported Anti-CD28 Fab signal in the presence of CD28 (phage binding ELISA) value.
# assayed-system: T1, Anti-CD28 Fab (SEQ ID NOs: 696, 697)
# T1 construct: In the phage ELISA the Fab was biotinylated and captured on neutravidin coated plates
# T1 sequence (VH, as listed by the source, chain 1 of 2): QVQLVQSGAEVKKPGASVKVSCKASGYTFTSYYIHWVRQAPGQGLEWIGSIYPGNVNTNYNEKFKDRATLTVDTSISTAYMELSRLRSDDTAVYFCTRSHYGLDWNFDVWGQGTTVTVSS
# T1 sequence (VL, as listed by the source, chain 2 of 2): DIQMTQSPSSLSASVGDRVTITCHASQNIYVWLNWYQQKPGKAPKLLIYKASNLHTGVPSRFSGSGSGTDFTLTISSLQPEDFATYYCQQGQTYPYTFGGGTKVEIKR
# assay-protocol: phage ELISA on captured anti-CD28 Fab; competitor: CD28 antigen pre-incubated on the Fab
Response field accepts a number only; no unit should be typed.

# count of solved cases: 4
binder	value-reported
YCDGHATEYMQKCL [Phage-934]	0.1
YCAGHSLEYMQKCL [Phage-937]	0.07
YCEGHTAEHMQKCL [Phage-932]	0.05
YCDGHLDVYRAKCL [Phage-941]	0.09

input: Look up Anti-CD28 Fab signal in the presence of CD28 (phage binding ELISA) for this binder: YCAGHAPEYMSKCL [Phage-939]
output: 0.05
